# Test system: Raf-1^gof intestinal tumors
# condition: screen of 480 ICCB compounds in vials; compounds fed to flies with one-day old Raf-1^gof tumors, assessed three days later; esg-Gal4 luciferase
Peptide text beside a SMILES is read from it. * marks the point of attachment. Cbz = O=C(OCc1ccccc1)*; CH2F = FC*
experimental-endpoint: Log2 (fold) (luciferase activity, log2 of the fold difference relative to DMSO controls)

compound | reported-measurement
COc1ccc2c(c1)c(CC(=O)O)c(C)n2C(=O)c1ccc(Cl)cc1 | −0.549
COC(=O)C[C@H](NC(=O)[C@H](C)NC(=O)[C@@H](NC(=O)OCc1ccccc1)C(C)C)C(=O)CF [zVAD-FMK] (Cbz-Val-Ala-Asp(OMe)-CH2F) | −0.597
CCCCC[C@H](O)CC(=O)CCc1ccc(O)c(OC)c1 | −0.273
C=C[C@@]1(C)CC(=O)[C@]2(O)[C@@]3(C)[C@@H](O)CCC(C)(C)[C@@H]3[C@H](O)[C@H](OC(C)=O)[C@@]2(C)O1 | −0.449

###

# System: Raf-1^gof intestinal tumors
# experiment-notes: Luciferase screen of FDA-approved (NCI) drugs in 96-well plates, flies with Raf-1^gof intestinal tumors
# Format: in vivo, Drosophila
# condition: six-day protocol: single dose for three days, then another dose for three more days

molecule | target-under-test | Day 6 Fold / fold
N#Cc1ccc(C(c2ccc(C#N)cc2)n2cncn2)cc1 | Raf-1^gof intestinal tumors | 1.342
Cc1cn(-c2cc(NC(=O)c3ccc(C)c(Nc4nccc(-c5cccnc5)n4)c3)cc(C(F)(F)F)c2)cn1 | Raf-1^gof intestinal tumors | 0.956
CCN(CC)CCCC(C)Nc1c2ccc(Cl)cc2nc2ccc(OC)cc12 (centres unmarked) | Raf-1^gof intestinal tumors | 1.229
O=C1CCC(N2C(=O)c3ccccc3C2=O)C(=O)N1 (centres unmarked) [Thalidomide] | Raf-1^gof intestinal tumors | 0.918
Nc1cccc2c1CN(C1CCC(=O)NC1=O)C2=O (centres unmarked) [Lenalidomide] | Raf-1^gof intestinal tumors | 0.784

###

# System: Raf-1^gof intestinal tumors
# experiment-notes: Luciferase screen of FDA-approved (NCI) drugs in 96-well plates, flies with Raf-1^gof intestinal tumors; as to Avg (3 + 6): test concentration or dose not given here
# Type: in vivo, Drosophila
# condition: average of Day 3 and Day 6 fold
Structures can show the parent of a compound that is named as a salt.
# Lookup of reported Avg (3 + 6) keyed by entry

molecule | u | Avg (3 + 6)
O=C(CCCCCCC(=O)Nc1ccccc1)NO | fold | 0.749
CC[C@@]1(O)C(=O)OCc2c1cc1n(c2=O)Cc2cc3c(CN(C)C)c(O)ccc3nc2-1 [Topotecan HCl] | fold | 0.233
O=C(c1ccc(OCCN2CCCCC2)cc1)c1c(-c2ccc(O)cc2)sc2cc(O)ccc12 [Raloxifene HCl] | fold | 1.100
CC(=O)O[C@]1(C(C)=O)CC[C@H]2[C@@H]3C=C(C)C4=CC(=O)CC[C@]4(C)[C@H]3CC[C@@]21C [Megestrol acetate] | fold | 1.219
NC(=O)NO [Hydroxyurea] | fold | 0.990
CCCCCOC(=O)Nc1nc(=O)n([C@@H]2O[C@H](C)[C@@H](O)[C@H]2O)cc1F | fold | 1.017
CC(=O)O[C@H]1C(=O)[C@@]2(C)[C@H]([C@H](OC(=O)c3ccccc3)[C@]3(O)C[C@H](OC(=O)[C@H](O)[C@@H](NC(=O)c4ccccc4)c4ccccc4)C(C)=C1C3(C)C)[C@]1(OC(C)=O)CO[C@@H]1C[C@@H]2O | fold | 0.695
O=C1[O][Pt]2([NH][C@@H]3CCCC[C@H]3[NH]2)[O]C1=O | fold | 1.082

###

# Test system: Raf-1^gof intestinal tumors
# condition: screen of 480 ICCB compounds in vials; compounds fed to flies with one-day old Raf-1^gof tumors, assessed three days later; esg-Gal4 luciferase
experimental-endpoint: Log2 (fold) (luciferase activity, log2 of the fold difference relative to DMSO controls)

compound | target-under-test | reported-measurement
CC(=O)[C@H]1[C@H](C#N)C[C@H]2[C@@H]3CC=C4C[C@@H](O)CC[C@]4(C)[C@H]3CC[C@@]21C [Pregnenolone 16alpha carbonitrile] | Raf-1^gof intestinal tumors | −0.492
CC(C)C[C@@H](/C=C/S(C)(=O)=O)NC(=O)[C@H](CC(C)C)NC(=O)[C@H](CC(C)C)NC(=O)OCc1ccccc1 [ZL3VS] | Raf-1^gof intestinal tumors | −0.513
CCCCCCCCCCCCC/C=C/[C@@H](O)[C@H](CO)NC(C)=O [C2 CERAMIDE] | Raf-1^gof intestinal tumors | −0.493

###

# Lookup of reported Log2 (fold) (luciferase activity, log2 of the fold difference relative to DMSO controls) keyed by entry
# Test system: Raf-1^gof intestinal tumors
# condition: screen of 480 ICCB compounds in vials; compounds fed to flies with one-day old Raf-1^gof tumors, assessed three days later; esg-Gal4 luciferase
experimental-endpoint: Log2 (fold) (luciferase activity, log2 of the fold difference relative to DMSO controls)

molecule-smiles | reported-measurement
O[C@H]1[C@H]2[C@H](O)CCCN2C[C@H]1O | −0.233
CCCCC[C@H](O)/C=C/[C@@H]1[C@H]2C/C(=C/CCCC(=O)O)C[C@H]2C[C@H]1O | −0.283
C#CCCCCCCCCCCCCCCCC(=O)O | −0.358

###

# System: Raf-1^gof intestinal tumors
# experiment-notes: Luciferase screen of FDA-approved (NCI) drugs in 96-well plates, flies with Raf-1^gof intestinal tumors; as to Log2 (fold): test concentration or dose not given here
# Format: in vivo, Drosophila
# condition: log2 of the Day 3 fold difference in luciferase relative to DMSO controls
Counter-ions that a name gives are not always drawn.
Log2 (fold) of -0.4 or higher: class 1. Under -0.4: class 0.

compound | assigned-class
Nc1ccn([C@@H]2O[C@H](CO)[C@@H](O)[C@@H]2O)c(=O)n1 [Cytarabine HCl] | class 1
O=C(CCCCCCC(=O)Nc1ccccc1)NO | class 0
COc1cccc2c1C(=O)c1c(O)c3c(c(O)c1C2=O)C[C@@](O)(C(=O)CO)C[C@@H]3O[C@H]1C[C@H](N)[C@H](O)[C@H](C)O1 [Doxorubicin HCl] | class 1
CC(=O)O[C@H]1C(=O)[C@@]2(C)[C@H]([C@H](OC(=O)c3ccccc3)[C@]3(O)C[C@H](OC(=O)[C@H](O)[C@@H](NC(=O)c4ccccc4)c4ccccc4)C(C)=C1C3(C)C)[C@]1(OC(C)=O)CO[C@@H]1C[C@@H]2O | class 0
CCN(CC)CCNC(=O)c1c(C)[nH]c(/C=C2\C(=O)Nc3ccc(F)cc32)c1C | class 1
CO[C@H]1C[C@@H]2CC[C@@H](C)[C@@](O)(O2)C(=O)C(=O)N2CCCC[C@H]2C(=O)O[C@H]([C@H](C)C[C@@H]2CC[C@@H](O)[C@H](OC)C2)CC(=O)[C@H](C)/C=C(\C)[C@@H](O)[C@@H](OC)C(=O)[C@H](C)C[C@H](C)/C=C/C=C/C=C/1C | class 0
C[C@@H](CN1CC(=O)NC(=O)C1)N1CC(=O)NC(=O)C1 | class 0
O=P(O)(O)C(O)(Cn1ccnc1)P(=O)(O)O | class 1

###

# Tested on: Raf-1^gof intestinal tumors
# experiment-notes: Luciferase screen of FDA-approved (NCI) drugs in 96-well plates, flies with Raf-1^gof intestinal tumors
# Format: in vivo, Drosophila
# condition: six-day protocol: single dose for three days, then another dose for three more days
experimental-endpoint: Day 6 Fold (fold)

compound | target-under-test | reported-measurement
Cc1ccc(-c2cc(C(F)(F)F)nn2-c2ccc(S(N)(=O)=O)cc2)cc1 | Raf-1^gof intestinal tumors | 0.834
CC(C)(C#N)c1cc(Cn2cncn2)cc(C(C)(C)C#N)c1 | Raf-1^gof intestinal tumors | 1.036
CC(C)Cn1cnc2c(N)nc3ccccc3c21 | Raf-1^gof intestinal tumors | 0.715
C[C@]12CC[C@@H]3c4ccc(O)cc4C[C@@H](CCCCCCCCC[S+]([O-])CCCC(F)(F)C(F)(F)F)[C@H]3[C@@H]1CC[C@@H]2O (stereo partly shown) | Raf-1^gof intestinal tumors | 1.486
C[C@@H](CN1CC(=O)NC(=O)C1)N1CC(=O)NC(=O)C1 | Raf-1^gof intestinal tumors | 0.454
O=C(CCBr)N1CCN(C(=O)CCBr)CC1 | Raf-1^gof intestinal tumors | 0.714
Oc1ncnc2[nH]ncc12 | Raf-1^gof intestinal tumors | 1.565

###

# System: Raf-1^gof intestinal tumors
# experiment-notes: Luciferase screen of FDA-approved (NCI) drugs in 96-well plates, flies with Raf-1^gof intestinal tumors; as to Log2 (fold): test concentration or dose not given here
# Assay type: in vivo, Drosophila
# condition: log2 of the Day 3 fold difference in luciferase relative to DMSO controls
Structures can show the parent of a compound that is named as a salt.
# Lookup of reported Log2 (fold) keyed by entry

molecule | target-under-test | Log2 (fold)
NC(=O)NO [Hydroxyurea] | Raf-1^gof intestinal tumors | −0.184
S=c1nc[nH]c2nc[nH]c12 [Mercaptopurine] | Raf-1^gof intestinal tumors | 0.101
N.N.O=C([O-])C1(C(=O)[O-])CCC1.[Pt+2] [Carboplatin] | Raf-1^gof intestinal tumors | 0.059
Nc1nc2nc[nH]c2c(=S)[nH]1 [Thioguanine] | Raf-1^gof intestinal tumors | 0.495
COc1cccc2c1C(=O)c1c(O)c3c(c(O)c1C2=O)C[C@@](O)(C(C)=O)C[C@@H]3O[C@H]1C[C@H](N)[C@H](O)[C@H](C)O1 [Daunorubicin HCl] | Raf-1^gof intestinal tumors | −1.484
O=C(c1ccc(OCCN2CCCCC2)cc1)c1c(-c2ccc(O)cc2)sc2cc(O)ccc12 [Raloxifene HCl] | Raf-1^gof intestinal tumors | 0.337
Nc1ccn([C@@H]2O[C@H](CO)[C@@H](O)C2(F)F)c(=O)n1 [Gemcitabine HCl] | Raf-1^gof intestinal tumors | −2.666
